assay.target: huCTLA4 (Homo sapiens, UniProt P16410)
Sequence (P16410 36-223): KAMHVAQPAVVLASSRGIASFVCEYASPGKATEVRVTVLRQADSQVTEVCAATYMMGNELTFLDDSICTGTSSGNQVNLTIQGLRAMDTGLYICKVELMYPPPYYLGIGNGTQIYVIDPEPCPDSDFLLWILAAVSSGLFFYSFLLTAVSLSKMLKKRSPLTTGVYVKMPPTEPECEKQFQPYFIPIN
test: Flow binding to CHO cells stably expressing CTLA4
Parameters: huCTLA4 and huPD-L1, full-length mammalian surface expression constructs were generated; expressed in transfected cells; host or cells: CHO cells, lentiviral transduction, sorted to >98% purity
assay.setup: Table E4; 33.3 nM variant CD80 IgV-Fc; CHO cells stably expressing CTLA4
Item-by-item account of CTLA4 MFI at 33.3 nM

Before answering, review these 3 worked examples.
# molecule, reported
records = [
    ("E35D/T41S/M43V/M47I/L70M/A71G (protein, UniProt P33681 35-288, looked up, variant E35D T41S M43V M47I L70M A71G, Fc fusion) T-lymphocyte activation …: VIHVTKEVKEVATLSCGHNVSVEELAQTRIYWQKDKKMVLSMVSGDINIWPEYKNRTIFDITNNLSIVIMGLRPSDEGTYECVVLKYEKDAFKREHLAEVTLSVKADFPTPSISDFEIPTSNIRRIICSTSGGFPEPHLSWLENGEELNAINTTVSQDPETELYAVSSKLDFNMTTNHSFMCLIKYGHLRVNQTFNWNTTKQEHFPDNLLPSWAITLISVNGIFVICCLTYCFAPRCRERRRNERLRRESVRPV", 249456),
    ("H18Y/A26E/E35D/M47L/L85Q/D90G (protein, UniProt P33681 35-288, looked up, variant H18Y A26E E35D M47L L85Q D90G) T-lymphocyte activation …: VIHVTKEVKEVATLSCGYNVSVEELEQTRIYWQKDKKMVLTMMSGDLNIWPEYKNRTIFDITNNLSIVILALRPSDEGTYECVVQKYEKGAFKREHLAEVTLSVKADFPTPSISDFEIPTSNIRRIICSTSGGFPEPHLSWLENGEELNAINTTVSQDPETELYAVSSKLDFNMTTNHSFMCLIKYGHLRVNQTFNWNTTKQEHFPDNLLPSWAITLISVNGIFVICCLTYCFAPRCRERRRNERLRRESVRPV", 230588),
    ("E35D/D46E/M47V/N63D/L85Q (protein, UniProt P33681 35-288, looked up, variant E35D D46E M47V N63D L85Q) T-lymphocyte activation …: VIHVTKEVKEVATLSCGHNVSVEELAQTRIYWQKDKKMVLTMMSGEVNIWPEYKNRTIFDITDNLSIVILALRPSDEGTYECVVQKYEKDAFKREHLAEVTLSVKADFPTPSISDFEIPTSNIRRIICSTSGGFPEPHLSWLENGEELNAINTTVSQDPETELYAVSSKLDFNMTTNHSFMCLIKYGHLRVNQTFNWNTTKQEHFPDNLLPSWAITLISVNGIFVICCLTYCFAPRCRERRRNERLRRESVRPV", 274320),
]

The reported value for E35D/M38I/M43V/M47V/N48R/L85Q (protein) VIHVTKEVKEVATLSCGHNVSVEELAQTRIYWQKDKKTVLTMVSGDVRIWPEYKNRTIFDITNNLSIVILALRPSDEGTYECVVQKYEKDAFKREHLAEVTLSVKAD in terms of CTLA4 MFI at 33.3 nM is 203938

Summary for this molecule, E35D/T41S/M43I/M47L/A71G (protein, UniProt P33681 35-288, looked up, variant E35D T41S M43I M47L A71G) T-lymphocyte activation …: VIHVTKEVKEVATLSCGHNVSVEELAQTRIYWQKDKKMVLSMISGDLNIWPEYKNRTIFDITNNLSIVILGLRPSDEGTYECVVLKYEKDAFKREHLAEVTLSVKADFPTPSISDFEIPTSNIRRIICSTSGGFPEPHLSWLENGEELNAINTTVSQDPETELYAVSSKLDFNMTTNHSFMCLIKYGHLRVNQTFNWNTTKQEHFPDNLLPSWAITLISVNGIFVICCLTYCFAPRCRERRRNERLRRESVRPV : CTLA4 MFI at 33.3 nM is 209034

Query I30V/E35D/M47V/A71G/A91V (protein, UniProt P33681 35-288, looked up, variant I30V E35D M47V A71G A91V) T-lymphocyte activation …: VIHVTKEVKEVATLSCGHNVSVEELAQTRVYWQKDKKMVLTMMSGDVNIWPEYKNRTIFDITNNLSIVILGLRPSDEGTYECVVLKYEKDVFKREHLAEVTLSVKADFPTPSISDFEIPTSNIRRIICSTSGGFPEPHLSWLENGEELNAINTTVSQDPETELYAVSSKLDFNMTTNHSFMCLIKYGHLRVNQTFNWNTTKQEHFPDNLLPSWAITLISVNGIFVICCLTYCFAPRCRERRRNERLRRESVRPV yields CTLA4 MFI at 33.3 nM of 204756

Given item V22A/E35D/M47I/Y87N (protein, CD80 v253 ECD) VIHVTKEVKEVATLSCGHNVSAEELAQTRIYWQKDKKMVLTMMSGDINIWPEYKNRTIFDITNNLSIVILALRPSDEGTYECVVLKNEKDAFKREHLAEVTLSVKADFPTPSISDFETPTSNIRRIICSTSGGFPEPHLSWLENGEELNAINTTVSQDPETELYAVSSKLDFNMTTNHSFMCLIKYGHLRVNQTFNWNTTKQEHFPDN , the value recorded as its CTLA4 MFI at 33.3 nM is 245711

Entry under test: Q33L/E35D/M47I/N48D/A71G (protein, UniProt P33681 35-288, looked up, variant Q33L E35D M47I N48D A71G) T-lymphocyte activation …: VIHVTKEVKEVATLSCGHNVSVEELAQTRIYWLKDKKMVLTMMSGDIDIWPEYKNRTIFDITNNLSIVILGLRPSDEGTYECVVLKYEKDAFKREHLAEVTLSVKADFPTPSISDFEIPTSNIRRIICSTSGGFPEPHLSWLENGEELNAINTTVSQDPETELYAVSSKLDFNMTTNHSFMCLIKYGHLRVNQTFNWNTTKQEHFPDNLLPSWAITLISVNGIFVICCLTYCFAPRCRERRRNERLRRESVRPV . Its CTLA4 MFI at 33.3 nM was 116798

# CTLA4 MFI at 33.3 nM of R29H/E35D/M43V/M47I/I49V (protein, UniProt P33681 35-288, looked up, variant R29H E35D M43V M47I I49V) T-lymphocyte activation …: VIHVTKEVKEVATLSCGHNVSVEELAQTHIYWQKDKKMVLTMVSGDINVWPEYKNRTIFDITNNLSIVILALRPSDEGTYECVVLKYEKDAFKREHLAEVTLSVKADFPTPSISDFEIPTSNIRRIICSTSGGFPEPHLSWLENGEELNAINTTVSQDPETELYAVSSKLDFNMTTNHSFMCLIKYGHLRVNQTFNWNTTKQEHFPDNLLPSWAITLISVNGIFVICCLTYCFAPRCRERRRNERLRRESVRPV = 4694
